- assay_summary: gradient 5% acetonitrile 3 min, to 50% in 2 min, to 85% in 15 min, held 3 min, 100 µL/min
- details: column: Zorbax Extend-C18 2.1 x 50 mm; eluents: water / acetonitrile, 0.1% formic acid
quantity: RP-LC retention time (s)

| molecule | RP-LC retention time / s |
| --- | --- |
| CCc1ccc(-c2nc(C3CC(=O)N(c4ccc(Cl)cc4)C3)no2)cc1 (stereo not given) | 1020 |
| CCn1cnc(S(=O)(=O)N2CCC(C(=O)N3CCN(c4ccc(OC)cc4)CC3)CC2)c1 | 668 |
| CN1CCN(C(CNS(=O)(=O)c2ccccc2F)c2ccsc2)CC1 (stereo not given) | 570 |
| Cc1nc(C)c(-c2ccc(=O)n(CCNC(=O)c3ccno3)n2)s1 | 585 |
| COc1cccc(-c2nc(-c3cccc(-c4ccn[nH]4)c3)no2)c1 | 1010 |

(P) CCCn1c(=O)c2cc(C(=O)Nc3cc(Cl)ccc3F)nn2c2ccccc21
(Q) Cn1cc(CCN2CCN(C(=O)c3ccccc3Br)CC2)c2cccnc21
Ask: For the pair P and Q , which entry has the numerically smaller recorded RP-LC retention time? Mark your answer with the label of the selected entry.
Result: Q

###

- assay_summary: gradient 5% acetonitrile 3 min, to 50% in 2 min, to 85% in 15 min, held 3 min, 100 µL/min
- details: column: Zorbax Extend-C18 2.1 x 50 mm; eluents: water / acetonitrile, 0.1% formic acid
quantity: RP-LC retention time (s)

| molecule | RP-LC retention time (s) |
| --- | --- |
| CCN1c2ccc(F)cc2C(=O)NC12CCN(C(=O)c1ccccc1)CC2 | 763 |
| COc1ccc2[nH]c(=O)c(CCC(=O)NCCCN3CCCC(C)C3)cc2c1 (configuration not stated) | 585 |
| O=C(NCc1cccs1)c1ccc(-c2nccnc2N2CCCCC2)cc1 | 968 |
| CCOc1ccc(C(O)CN2CCN(C3CCCCC3)CC2)cc1 (configuration not stated) | 569 |
| N#Cc1cccc(S(=O)(=O)N2CCc3nc(-c4ccc(F)cc4)ncc3C2)c1 | 1030 |
| CC(C)(C)C(O)CCNC(=O)Nc1ccc2c(c1)OCO2 (configuration not stated) | 690 |
| Cc1ccc(Nc2c(-c3ccc(C)cc3)nc3ccccn23)cc1 | 741 |

###

- assay_summary: gradient 5% acetonitrile 3 min, to 50% in 2 min, to 85% in 15 min, held 3 min, 100 µL/min
- details: column: Zorbax Extend-C18 2.1 x 50 mm; eluents: water / acetonitrile, 0.1% formic acid
quantity: RP-LC retention time (s)

| molecule | assay_result |
| --- | --- |
| Cc1cc(NC(=O)C(=O)NCc2nc(-c3ccccc3)no2)no1 | 742 |

(1) Cn1nc(C(=O)N2CCC(C(=O)NC3CCCCCC3)CC2)c2c1CCN(C(=O)c1ccccc1)C2
(2) COc1ccccc1NC(=O)CSc1nc2ccccc2c(=O)n1C1CCCCC1
Ask: For the pair 1 and 2 , which entry has the numerically smaller recorded RP-LC retention time? Mark your answer with the label of the selected entry.
Result: 1
(1: 742 s, 2: 1230 s)

(a) Cn1c(=O)sc2cc(S(=O)(=O)N3CCC(C(=O)Nc4ccc(F)c(Cl)c4)CC3)ccc21
(b) CN(C)C(=O)c1cccc(C(=O)N(C)C)n1
(c) COc1ccc(N2CCN(S(=O)(=O)c3cc(-c4nc(C(C)C)cs4)sc3C)CC2)cc1
Ask: Put the molecules in ascending order of RP-LC retention time. Please express your ranking as an ordered list of the labels.
Result: b, a, c
(b: 541 s, a: 938 s, c: 1340 s)

(P) CCOc1ccc2nc(NC(=O)c3cc(=O)c(OCc4ccccc4)cn3C)sc2c1
(Q) CC(C)c1ccc(N2C(=O)C3N=NN(Cc4nc(-c5ccc6c(c5)OCO6)no4)C3C2=O)cc1 (stereo unspecified)
Ask: For the pair P and Q , which entry has the numerically smaller recorded RP-LC retention time? Mark your answer with the label of the selected entry.
Result: P
(P: 741 s, Q: 1060 s)

(1) COC1CCC12CCN(C(=O)CC(C)C)CC2 (stereo unspecified)
(2) Fc1ccc(-c2nc3ccccc3[nH]2)cc1
Ask: Which item exceeds the other in RP-LC retention time, 1 or 2 ? Mark your answer with the label of the selected entry.
Result: 1

Values from the METLIN SMRT retention time set (Domingo-Almenara et al. 2019)
